// values below are Ki; system is hCB2 receptor (Homo sapiens)
Sequence (P34972 whole entry): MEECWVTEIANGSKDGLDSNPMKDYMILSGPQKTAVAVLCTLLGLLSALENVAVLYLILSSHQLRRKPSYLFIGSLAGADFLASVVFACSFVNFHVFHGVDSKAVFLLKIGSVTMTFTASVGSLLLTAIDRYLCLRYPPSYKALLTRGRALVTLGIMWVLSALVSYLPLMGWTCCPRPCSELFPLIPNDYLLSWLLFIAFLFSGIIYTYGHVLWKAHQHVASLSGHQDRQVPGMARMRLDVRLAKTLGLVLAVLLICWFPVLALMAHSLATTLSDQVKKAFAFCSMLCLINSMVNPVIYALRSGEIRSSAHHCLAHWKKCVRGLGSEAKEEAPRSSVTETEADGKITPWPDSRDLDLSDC
Respond with a number, then the unit of measure.

Worked examples follow.
INSERT INTO measurements (compound, observed_value) VALUES
  ('CCCCCCC(C)(C)c1cc(O)c2c(c1)oc(=O)c1ccc(O)cc12 [Compound 1b, reference compound]', '0.0836 µM'),
  ('CCCCCCC1(c2cc(O)c3c(c2)oc(=O)c2ccc(O)cc23)CCCC1', '0.028 µM');

Pending compound:
Return reported Ki; argument: N#CCCCCCC1(c2cc(O)c3c(c2)oc(=O)c2ccc(O)cc23)CCCC1
0.0338 µM

---

Let's look at some compounds and their measured Ki.
Molecular target: mouse CB2 receptor (Mus musculus, UniProt P47936)
Construct: expressed in transfected cells; host or cells: HEK293
Sequence (P47936 whole entry): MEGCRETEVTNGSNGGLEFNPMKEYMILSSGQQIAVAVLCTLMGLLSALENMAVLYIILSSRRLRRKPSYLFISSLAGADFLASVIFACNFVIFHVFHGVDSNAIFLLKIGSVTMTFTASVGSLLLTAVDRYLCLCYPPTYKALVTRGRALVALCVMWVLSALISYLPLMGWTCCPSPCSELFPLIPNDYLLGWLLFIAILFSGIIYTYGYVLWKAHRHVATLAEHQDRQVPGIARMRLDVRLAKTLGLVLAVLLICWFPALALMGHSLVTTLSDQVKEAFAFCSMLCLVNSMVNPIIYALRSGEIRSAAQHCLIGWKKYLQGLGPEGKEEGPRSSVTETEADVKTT
Assay: Radioligand competition binding, [3H]CP-55,940, membranes from HEK293 cells expressing mouse CB2
Report the figure in nM without appending any unit label.

Example entries and their recorded answers appear below.
INSERT INTO measurements (compound, observed_value) VALUES
  ('O=c1oc2cc(C3(CCCCCBr)CCCC3)cc(O)c2c2cc(O)ccc12', 16.3),
  ('N#CCCCC1(c2cc(O)c3c(c2)oc(=O)c2ccc(O)cc23)CCCC1', 17.9),
  ('CC(C)N(C(=O)c1ccc(O)cc1-c1c(O)cc(C2(CCCCCBr)CCCC2)cc1O)C(C)C [Compound 23b]', 17.4);

Could you now consider this next compound?
Can you look up the measured Ki of CC(C)N(C(=O)c1ccc(O)cc1-c1c(O)cc(C2(CCCBr)CCCC2)cc1O)C(C)C [Compound 23c] for me?
10.5
